biological target: human recombinant cathepsin K (Homo sapiens, UniProt P43235); assay: Determination of cathepsin K proteolytic catalytic activity (H-D-Ala-Leu-Lys-AMC substrate); settings: read-out: Ki Cat. K
Sequence (P43235 115-329): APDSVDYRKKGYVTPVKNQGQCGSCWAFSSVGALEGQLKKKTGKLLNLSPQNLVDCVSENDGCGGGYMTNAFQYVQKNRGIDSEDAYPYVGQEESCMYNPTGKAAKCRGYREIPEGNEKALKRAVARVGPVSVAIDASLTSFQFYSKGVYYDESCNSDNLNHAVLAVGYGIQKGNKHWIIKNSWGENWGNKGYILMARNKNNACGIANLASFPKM
MEASURED PARAMETER: Ki (nM)

COMPOUND	Ki / nM
COC1CC(NC(=O)[C@H](CC2(F)CCCC2)NC(=O)C(C)(C)C)(C(=O)C(=O)Nc2ccn(C)n2)C1 (stereo partly shown)	340

(A) CCNC(=O)N[C@@H](CC1(F)CCCC1)C(=O)NC1(C(=O)C(=O)Nc2ccn(C)n2)CCC1
(B) Cn1ccc(NC(=O)C(=O)C2(NC(=O)[C@H](CC3(F)CCCC3)NC(=O)C(F)F)CC(F)(F)C2)n1
Ask: Of A and B , which shows the smaller Ki value? Lab log: write the label of the selected item as the result.
Reply: A
(A: 620 nM, B: 1100 nM)

(I) CC(C)NC(=O)N[C@@H](CC1(F)CCCC1)C(=O)N[C@]1(C(=O)C(=O)Nc2ccn(C)n2)C[C@@H](F)C1
(II) [2H]C([2H])([2H])C(C(=O)N[C@@H](CC1(F)CCCC1)C(=O)NC1(C(=O)C(=O)Nc2ccn(C)n2)CC(F)(F)C1)(C([2H])([2H])[2H])C([2H])([2H])[2H]
Ask: Which item exceeds the other in Ki, I or II ? # answer = label of selected item
Reply: I
(I: 1300 nM, II: 640 nM)

* * *

Biological target: human recombinant cathepsin K (Homo sapiens)
Test: Determination of cathepsin K proteolytic catalytic activity (H-D-Ala-Leu-Lys-AMC substrate)
Settings: read-out: Ki Cat. K
Experimental: Determination of Cathepsin K Proteolytic Catalytic Activity […] Standard assay conditions for the determination of kinetic constants used a fluorogenic peptide substrate, typically H-D-Ala-Leu-Lys-AMC, and were determined in either 100 mM Mes/Tris, pH 7.0 containing 1 mM EDTA and 10 mM 2-mercaptoethanol or 100 mMNa phosphate, imM EDTA, 0.1% PEG4000 pH 6.5 or 100 mM Na acetate, pH 5.5 containing 5 mM EDTA and 20 mM cysteine, in each case optionally with 1M DTT as stabiliser. […]
pKi: −log10 of the molar value.
MEASURED PARAMETER: pKi

Here's what some known entries look like.
> print(dat)
                                   compound  measured.result
1  CCC(=O)N[C@@H](CC1(C)CCCC1)C(=O)N[C@]1(C(=O)C(=O)Nc2ccn(C)n2)C[C@@H](F)C1 [Example A1]             6.07
2  CC(C)C(=O)NC(CC1(F)CCCC1)C(=O)NC1(C(=O)C(=O)Nc2ccn(C)n2)CC(F)C1 (stereo not shown) [Example A30]             6.14
3  COC1CC(NC(=O)[C@H](CC2(C)CCCC2)NC(C)=O)(C(=O)C(=O)NC2CC2)C1 (stereo partly shown) [Example A16]             4.92
4  COC1CC(NC(=O)[C@H](CC2(C)CCCC2)NC(=O)CCl)(C(=O)C(=O)NC2CC2)C1 (stereo partly shown) [Example A19]             5.13
5  CCN(CC)C(=O)N[C@@H](CC1(C)CCCC1)C(=O)N[C@]1(C(=O)C(=O)Nc2ccn(C)n2)C[C@@H](F)C1 [Example U1]             6.29

(I) CC(=O)N[C@@H](CC1(C)CCC1)C(=O)NC1(C(=O)C(=O)Nc2ccn(C)n2)CC(F)(F)C1 [Example A13]
(II) CC(=O)N[C@@H](CC1(C)CCCC1)C(=O)NC1(C(=O)C(=O)Nc2ccn(C)n2)CCC1 [Example A6]
Ask: Kindly identify which of I and II has the larger recorded pKi value. Indicate which entry you chose by stating its label.
Reply: I
(I: 6.47, II: 6.24)
